Reported apparent KD of MS2 coat protein values follow for various sequences
system: MS2 coat protein; experiment: apparent KD of MS2 coat protein; designed switch direction (-1 OFF switch, 1 ON switch): 1; higher = weaker reporter binding; settings: input ligand: none
The reply should contain only the number, in nM.

apparent KD of MS2 coat protein reported for this sequence UAAAUAAUGAUAGGAUAUACAUGAGGAAUUCUCGUAGAAGGAUCAUGACAUGAGGAUCACCCAUGUAACGCUCGAAAGAGCGUA [Mat - Same State NG 1 - JL mod - D40] (Eterna round: R96, puzzle: Same State NG 1) : 585

Lab note: UUGAAGAAUAUAGGAUAUUGAAUACAUAUGUUUAACAUGAGGAUCACCCAUGUGGGUUGCGGUAUCGAGAAGGAUAAAUAAAAG [Mat - Same State NG 2 - JL mod - D14] (Eterna round: R96, puzzle: Same State NG 2) gave apparent KD of MS2 coat protein of 181

Sample AGCUUUUAAUUAGGAUAUGGUCACAUGAGGAUCACCCAUGUAACGAUGAUAUAAUGUGGUCAAGACUAGAAGGGAUCGCUAACA [SameState NG2 #69] (Eterna round: R96, puzzle: Same State NG 2) ; apparent KD of MS2 coat protein observed: 284

// apparent KD of MS2 coat protein value for UAGUGCAUUAGAGGAUAUUCUUACGGAAACGUUAAGACAUGAGGAUCACCCAUGUUGUCACAUGGGAAGAAGGCUGAUGUGCUA [Omei SS(NG)2 Bv4] (Eterna round: R96, puzzle: Same State NG 2) : 835

* * *

system: MS2 coat protein; assay: apparent KD of MS2 coat protein; designed switch direction (-1 OFF switch, 1 ON switch): -1; higher = weaker reporter binding; conditions: input ligand: FMN 200 uM
Tick criterion met if apparent KD of MS2 coat protein is 40 nM or greater. Tick criterion not met if apparent KD of MS2 coat protein is less than 40 nM.

Worked examples follow.
primary-sequence	target	category
CUAAAUCAUGUAGGAUAUGCGUGGCGAAGCUAUGCAGAAGGACAUGAGGAUCACCCAUGUGCUUCCGUCUGAGAACAGACGGAA [Mat - Exclusion NG 1 - Mod of JL - D26] (Eterna round: R96, puzzle: Exclusion NG 1)	MS2 coat protein	criterion met
GAAAGCUUUGAGCUCGAUCACAUGAGGAUCACCCAUGUGGGAGCCAGGCGACGGCAUUCUGCGAGGGCGACUUUUGG [Eternabot (L2) Solution 42] (Eterna round: R97, puzzle: Sensor, turn-off variant 1)	MS2 coat protein	criterion not met
AGUAGUUACGUAGGAUAUGAGGAUCACCCAUAGAAGGAUAUCGAAAGAGAAGGUCUGAGGAUUACCCAGAAGGACGUGACUACA [pwkr exNG2 2xF5 2xFMN.9] (Eterna round: R96, puzzle: Exclusion NG 2)	MS2 coat protein	criterion met
UGACAGGAGUAGGAUAUGCCCACCGUCCGACUGGCAGAAGGACUCACAUGAGGAUCACCCAUGUAGUUAUGUAC [Eternabot (L2) Solution 96] (Eterna round: R97, puzzle: Exclusion 6)	MS2 coat protein	criterion not met
CCGCGUACAGGAUAUCCAUCUGGAUCAGACAAGAUCCUGAUGGAGAAGGGACAUGAGGAUCACCCAUGUUGCGG [Mat - Exclusion 4 - Eli Mod - D54] (Eterna round: R97, puzzle: Exclusion 4)	MS2 coat protein	criterion not met

Request: Test whether the sequence UUUGCAAGCUUAUGAUCCCACAUGAGGAUCACCCAUGUUCCUGGCCGUGAGGCUAGGAUAACAUAUGCUCGUCUUAU [JL TOV1 3.64] (Eterna round: R97, puzzle: Sensor, turn-off variant 1) records apparent KD of MS2 coat protein of 40 nM or higher.
Response: criterion met

Request: Does CAAAAUGCUCGAGGAUAUCCGAGGAGCAGAAAAGGAGAAGGCGAGGAUAAAGAACAUGAGGAUCACCCAUGUGAACCUCGUAAU [Lereores] (Eterna round: R96, puzzle: Exclusion NG 1) have a reported apparent KD of MS2 coat protein of at least 40 nM?
Response: criterion not met

Request: Confirm if apparent KD of MS2 coat protein reported for the sequence AUCGUGCAGCUUUGCUGUACGAGUACAUGAGGAUCACCCAUGUAGGAUAUGGUACGCUUUGCGUGCUAGAAGGAUAUGAGUAGG [EX ENG3 1.42] (Eterna round: R96, puzzle: Exclusion NG 3) is 40 nM or above.
Response: criterion met

* * *

system: MS2 coat protein; experiment: apparent KD of MS2 coat protein; designed switch direction (-1 OFF switch, 1 ON switch): -1; higher = weaker reporter binding; settings: input ligand: microRNA oligo, concentration not stated
property: apparent KD of MS2 coat protein (µM)
Write the answer as a number in µM, unit excluded.

primary-sequence	property	scale-unit	numeric-result
UCUCUUGGGCAAGGAUAUCCUGCGCGGUUCCGGUUCGUGUCUGUCACAUGAGGAUCACCCAUGUGGGAGAAGGUGCCUGCGGUC [Design 77] (Eterna round: R96, puzzle: Exclusion NG 2)	apparent KD of MS2 coat protein	µM	0.012
AACUAACAUGUAGGAUAUGCGUGGCGAAGCUAUGCAGAAGGACAUGAGGAUCACCCAUGUUUUAGCGUCUGCGUACAGAUGCAU [JL ENG1 1.41] (Eterna round: R96, puzzle: Exclusion NG 1)	apparent KD of MS2 coat protein	µM	0.0166

Form: sequence = AGUUGGCGAGGAUAUACAUGAGGAUCACCCAUGUGAAGAAGAAUAGUGAGGAAGAAAAGUAGAAGGCGCUGACA [Mat - Exclusion 3 - Mod of Salish D37] (Eterna round: R96, puzzle: Exclusion 3) ; apparent KD of MS2 coat protein = 0.0336

* * *

system: MS2 coat protein; assay: apparent KD of MS2 coat protein; designed switch direction (-1 OFF switch, 1 ON switch): -1; higher = weaker reporter binding; conditions: input ligand: FMN 200 uM
property: apparent KD of MS2 coat protein (nM)
Report the value in nM with no unit label.

primary-sequence	target	numeric-result
CAUUGUUAUCGAGGAUAUCGUAUUGAGAUUCUACGAGAAGGCGGACUAAACAUGAGGAUCACCCAUGUGGGACGGAUGCUUGGG [Ex NG1 #31] (Eterna round: R96, puzzle: Exclusion NG 1)	MS2 coat protein	30.7
GUCAGCUCGUGAGGAUAUACAUGCGUGCUUCGGCACGUAUGAUAGAUCACAUGAGGAUCACCCAUGUAGAAGGCACGAGCUGAU [ENG2/4-A2] (Eterna round: R96, puzzle: Exclusion NG 2)	MS2 coat protein	21.7
AUGCGUGGCUAGGAUAUCGAGGAAUUUAGCCAGCGAGAAGGAGCCACAUGAGGAUCACCCAUGUGGUGAACCUU [jl-ex6-4.64 ViennaUCT mod] (Eterna round: R97, puzzle: Exclusion 6)	MS2 coat protein	14.5
ACAUGAGGAUCACCCAUGUGACCACAAUGGCUGAUGUAACAACAGGAUAUGUGUGAAUAUCUAACACAGAAGGGUUUUGACUGG [Deportation 58 - Jieux - Exclusion NG 3] (Eterna round: R96, puzzle: Exclusion NG 3)	MS2 coat protein	76.9

From here, focus on the item given below.
apparent KD of MS2 coat protein in this record for AGUAUAAUGUACGUGCACCACUUACAUGAGGAUCACCCAUGUUAGGAUAUCGAGCCUUUCUGGCUCGAGAAGGGACUCUUCGGG [Eternabot solution 18] (Eterna round: R96, puzzle: Exclusion NG 3) : 33.2

* * *

Parameter apparent KD of MS2 coat protein: see the listing below.
tested on: MS2 coat protein; assay: apparent KD of MS2 coat protein; designed switch direction (-1 OFF switch, 1 ON switch): 1; higher = weaker reporter binding; conditions: Eterna round: R95; input ligand: FMN 200 uM
I only need the number, in nM, no unit after it.

primary-sequence	property	numeric-result
AGAGCCGGCACUGAGGAUAUUCAUAAUAAAACAUGAGGAUCACCCAUGUAGGCCAGAAGGCCUUGGGAGAAGGCAGGUCGGCUCA [Mat - Same State 2 - Mod of UCT - D67] (puzzle: Same State 2)	apparent KD of MS2 coat protein	16.7
UGCUAUAGUAUAUUGGUGCAAGCUUUUUGACAUGAGGAUCACCCAUGUACUCGUCUUAAGCGCAGUCCGUAGACUGC (puzzle: Sensor for hsa-mir-208a)	apparent KD of MS2 coat protein	84.5
GAGGAUGAUUUACAGGAUAUAUAGGAGAUGACAUGAGGAUCACCCAUGUAGGAGAUAGGAGUGAGAUAGAAGGGUAAGUGAUGUG [JR_SS2_Sub43] (puzzle: Same State 2)	apparent KD of MS2 coat protein	58.9
GGAGCCGGCACUGAGGAUAUUCAUAAUAAAACAUGAGGAUCACCCAUGUAGGCCAGAAGGCCUUGGGAGAAGGCAGGUCGGCUCG [Mat - Same State 2 - Mod of UCT - D65] (puzzle: Same State 2)	apparent KD of MS2 coat protein	16.7

Then this sequence:
The recorded apparent KD of MS2 coat protein for CUGUGUUGCGGGCAGGAUAUGUACUUGAGUACAUGAGGAUCACCCAUGUGCGGGUGUUUCACCCGACAGAAGGGCCAAUCGCGAC [JL-ss2-3.23 ViennaUCT mod] (puzzle: Same State 2) is 68.8

Taken from the supplement of paper PMC9170038.
